Dear all, I have gathered published IC50 values for NAD-dependent protein deacetylase sirtuin-2 (Homo sapiens); the list follows.
Readout Kind: IC50 (µM)

[
  {
    "Smiles Structure": "COc1ccc(/C=C/C(=O)NC(C)(C)C(=O)NCCc2c[nH]c3ccccc23)cc1",
    "Target Entity": "NAD-dependent protein deacetylase sirtuin-2 (Homo sapiens)",
    "Quantity Unit": "µM",
    "IC50": 99
  }
]

I = NC(=O)c1ccccc1Nc1ccc(OCc2ccccc2)cc1
II = CC(C)(C)OC(=O)NCCC1CCN(c2ncnc3cc(C(N)=O)sc23)CC1
III = Fc1ccc(-c2noc(CCCBr)n2)cc1
IV = NC(=O)c1cncc(Oc2cccc3c(NC(=O)c4ccccc4)cccc23)c1
V = CC(=O)N[C@@H](C)C(=O)N[C@@H](CCCCNC(=O)CC(C)C)C(=O)N[C@@H](C)C(=O)O
Given 5 compounds, produce a descending ranking by IC50. Kindly provide the labels arranged according to the requested ordering.
I, V, III, IV, II
(I: 74 µM, V: 30 µM, III: 19.8 µM, IV: 0.0483 µM, II: 0.0054 µM)

A = NC(=O)c1cc2ncnc(N3CCC(CCNC(=O)c4ccc(C(=O)O)s4)CC3)c2s1
B = NC(=O)c1cncc(Nc2ccc3ccccc3c2)c1
For the two items A and B , which reports the higher IC50 value? Pick one; state its label.
B
(B: 4.3 µM, A: 0.0044 µM)

====

Dear all, I have gathered published IC50 values for NAD-dependent protein deacetylase sirtuin-2 (Homo sapiens); the list follows.
Readout Kind: IC50 (µM)

[
  {
    "Compound": "NC(=O)c1ccccc1Nc1cccc(-c2cn(CCC3CCCC3)nn2)c1",
    "Target Entity": "NAD-dependent protein deacetylase sirtuin-2 (Homo sapiens)",
    "Readout Kind": "IC50",
    "Observed Value": 0.57
  },
  {
    "Compound": "CC(=O)N[C@@H](C)C(=O)N[C@@H](CCCCNC(C)=S)C(=O)N[C@@H](C)C(=O)O",
    "Target Entity": "NAD-dependent protein deacetylase sirtuin-2 (Homo sapiens)",
    "Readout Kind": "IC50",
    "Observed Value": 9.8
  },
  {
    "Compound": "CNC(=O)[C@H](C)NC(=O)[C@H](CCCCNC(=O)C=C(C)C)NC(=O)[C@H](C)NC(C)=O",
    "Target Entity": "NAD-dependent protein deacetylase sirtuin-2 (Homo sapiens)",
    "Readout Kind": "IC50",
    "Observed Value": 23
  },
  {
    "Compound": "CCCCCC1CC(=O)c2cc(C3(C(F)(F)F)N=N3)ccc2O1 (stereo not drawn)",
    "Target Entity": "NAD-dependent protein deacetylase sirtuin-2 (Homo sapiens)",
    "Readout Kind": "IC50",
    "Observed Value": 8.2
  },
  {
    "Compound": "C[C@H](NC(=O)[C@@H](CCCCNC(=S)CNC(=O)c1ccccc1Nc1cccc(OCCc2ccccc2)c1)NC(=O)OCc1ccccc1)C(N)=O",
    "Target Entity": "NAD-dependent protein deacetylase sirtuin-2 (Homo sapiens)",
    "Readout Kind": "IC50",
    "Observed Value": 55
  }
]

A = Nc1cc(C(=O)Nc2cccc(C(=O)Nc3ccc(S(=O)(=O)O)c4cc(S(=O)(=O)O)cc(S(=O)(=O)O)c34)c2)cc(C(=O)Nc2cccc(C(=O)Nc3ccc(S(=O)(=O)O)c4cc(S(=O)(=O)O)cc(S(=O)(=O)O)c34)c2)c1
B = CC(=O)N[C@@H](C)C(=O)N[C@@H](CCCCNC(=O)C=C(C)C)C(=O)N[C@@H](C)C(=O)O
Among A and B , whose measured IC50 is the smaller figure? Pick one; state its label.
A
(A: 2.26 µM, B: 77 µM)
